Sourced from PubChem BioAssay (NCI)

# Tested on: MDA-MB-468 breast
# measurementProtocol: NCI tumour cell line growth inhibition, 48 h
Listing: TGI of selected compounds

O=C(O)c1ccc2c3c(ncnc13)-c1ccccc1C2=O; > 100 µM
COc1ccc2c(c1)CCc1[nH]nc(-c3cc(OC)c(OC)c(OC)c3)c1-2; < 0.01 µM

Turning to the following compound.
Request: Record lookup: for MDA-MB-468 breast, what TGI belongs to "c1ccc(Nn2c(CCCCCCCCc3nnc(COc4ccccc4)n3Nc3ccccc3)nnc2COc2ccccc2)cc1" ?
Response: > 300 µM
